- measured-on: T1, human MSLN-FL-his protein (human, UniProt Q13421 296-580)
- T1 construct: also called hMSLN-FL-his; human MSLN full-length protein; not shown: His tag
- experimental-details: ELISA, coated antigen; antibody 1 nM
Each item that follows carries a reported OD450.
measurement-name: OD450

binder	measurement-name	value-observed
S009-F1.56.1 human-murine chimeric antibody (antibody, human IgG1, kappa, V domains shown, Chimeric IgG1/kappa) VH: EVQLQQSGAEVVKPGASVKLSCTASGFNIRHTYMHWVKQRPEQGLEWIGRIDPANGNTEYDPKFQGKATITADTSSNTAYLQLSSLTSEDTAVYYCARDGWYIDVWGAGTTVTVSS VL: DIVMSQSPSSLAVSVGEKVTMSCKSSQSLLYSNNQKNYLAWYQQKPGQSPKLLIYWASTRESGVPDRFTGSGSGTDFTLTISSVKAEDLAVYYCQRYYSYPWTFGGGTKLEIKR	OD450	2.3
S009-F1.25.10 human-murine chimeric antibody (antibody, human IgG1, kappa, V domains shown, Chimeric IgG1/kappa) VH: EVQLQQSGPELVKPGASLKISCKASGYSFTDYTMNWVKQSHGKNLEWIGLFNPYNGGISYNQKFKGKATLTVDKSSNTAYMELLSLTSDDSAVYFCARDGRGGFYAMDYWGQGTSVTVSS VL: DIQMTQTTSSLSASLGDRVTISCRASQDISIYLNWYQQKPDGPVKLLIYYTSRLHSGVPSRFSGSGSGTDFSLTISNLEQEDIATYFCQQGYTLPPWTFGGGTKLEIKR	OD450	2.3
S009-F1.2.12 human-murine chimeric antibody (antibody, human IgG1, kappa, V domains shown, Chimeric IgG1/kappa) VH: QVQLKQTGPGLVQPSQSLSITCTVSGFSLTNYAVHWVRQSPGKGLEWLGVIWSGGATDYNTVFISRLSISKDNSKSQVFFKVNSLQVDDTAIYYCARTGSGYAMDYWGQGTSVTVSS VL: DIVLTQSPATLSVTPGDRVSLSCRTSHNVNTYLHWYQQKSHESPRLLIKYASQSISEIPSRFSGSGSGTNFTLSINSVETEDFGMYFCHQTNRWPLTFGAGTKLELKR	OD450	2.27
S009-F1.62.9 human-murine chimeric antibody (antibody, human IgG1, kappa, V domains shown, Chimeric IgG1/kappa) VH: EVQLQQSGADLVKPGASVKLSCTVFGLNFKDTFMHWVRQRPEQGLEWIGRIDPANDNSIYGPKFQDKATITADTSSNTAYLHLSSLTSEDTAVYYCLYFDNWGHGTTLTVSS VL: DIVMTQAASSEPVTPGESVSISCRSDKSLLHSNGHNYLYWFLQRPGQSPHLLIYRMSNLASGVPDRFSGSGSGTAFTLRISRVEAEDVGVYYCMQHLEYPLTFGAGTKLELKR	OD450	2.35
S009-F1.57.1 human-murine chimeric antibody (antibody, human IgG1, kappa, V domains shown, Chimeric IgG1/kappa) VH: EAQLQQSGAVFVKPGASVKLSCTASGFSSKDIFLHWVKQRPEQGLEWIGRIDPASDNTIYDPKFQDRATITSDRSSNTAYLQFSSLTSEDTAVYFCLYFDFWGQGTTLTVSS VL: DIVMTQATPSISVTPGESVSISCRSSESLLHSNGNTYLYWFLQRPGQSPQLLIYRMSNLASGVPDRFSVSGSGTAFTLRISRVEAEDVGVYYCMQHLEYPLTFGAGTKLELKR	OD450	2.03
